src = ChEMBL document CHEMBL3875209

method.notes: Antiproliferative activity against human MCF7 cells after 48 hrs by MTT assay
Format: functional, cell-based
protocol.conditions: MCF7, 48 h
pIC50: −log10 of the molar value.
# label = t if pIC50 >= 5 else f

{"molecule": "COc1cc(-c2nncn2-c2ccc(-c3nc4cc(OC)c(OC)c(OC)c4s3)cc2)cc(OC)c1OC", "group": "t"}
{"molecule": "COc1ccc2nc(-c3ccc(-n4cnnc4-c4cc(OC)c(OC)c(OC)c4)c(C)c3)sc2c1", "group": "t"}
{"molecule": "COc1ccc2nc(-c3ccc(-n4nnnc4-c4cc(OC)c(OC)c(OC)c4)c(OC)c3)sc2c1", "group": "t"}
{"molecule": "COc1ccc(/C=C\\c2cc(OC)c(OC)c(OC)c2)cc1O [COMBRETASTATIN A4]", "group": "t"}
{"molecule": "COc1cc(OC)c2sc(-c3ccc(-n4nnnc4-c4cc(OC)c(OC)c(OC)c4)c(OC)c3)nc2c1", "group": "f"}
{"molecule": "COc1ccc2nc(-c3ccc(-n4cnnc4-c4cc(OC)c(OC)c(OC)c4)c(OC)c3)sc2c1", "group": "f"}
{"molecule": "COc1ccc2nc(-c3ccc(-n4cc(-c5cc(OC)c(OC)c(OC)c5)nn4)c(C)c3)sc2c1", "group": "f"}
{"molecule": "COc1cc(OC)c2sc(-c3ccc(-n4nnnc4-c4cc(OC)c(OC)c(OC)c4)cc3)nc2c1", "group": "f"}
{"molecule": "COc1cc(-c2nncn2-c2ccc(-c3nc4ccc(F)cc4s3)cc2C)cc(OC)c1OC", "group": "t"}
{"molecule": "COc1cc(-c2nc3ccc(F)cc3s2)ccc1-n1nnnc1-c1cc(OC)c(OC)c(OC)c1", "group": "t"}
{"molecule": "COc1cc(-c2nc3cc(OC)c(OC)c(OC)c3s2)ccc1-n1nnnc1-c1cc(OC)c(OC)c(OC)c1", "group": "f"}
